Assay: Microsomal stability assay
Type: in vitro ADME
Settings: mouse, pooled mouse liver microsomes
observed.property: remaining at 1 h, 4 μM (%)

Observe how each entry below is paired with its result.
CC1(C)CC(=O)C2=C(C1)Nc1cc(C(F)(F)F)ccc1NC2c1ccc(N2CCCC2)cc1 (stereo not drawn)    1.8
CCN(CC)c1ccc(C2Nc3ccc(C(=O)c4ccccc4)cc3NC3=C2C(=O)CC(C)(C)C3)cc1 (stereo not drawn)    7.9

P: CC1(C)CC(=O)C2=C(C1)Nc1cc(C(=O)c3ccccc3)ccc1NC2c1ccc(N2CCCCC2)cc1 (stereo not drawn)
Q: CCN(CC)c1ccc(C2Nc3ccc(-c4ccccc4)cc3NC3=C2C(=O)CC(C)(C)C3)cc1 (stereo not drawn)
R: CC1(C)CC(=O)C2=C(C1)Nc1cc(C(F)(F)F)ccc1NC2c1ccc(N2CCCCC2)cc1 (stereo not drawn)
S: CC1(C)CC(=O)C2=C(C1)Nc1cc(Br)ccc1NC2c1ccc(N2CCCC2)cc1 (stereo not drawn)
// ranking: key=remaining at 1 h, 4 μM, reverse=True I'd appreciate it if you listed the labels in the requested order.
P, R, Q, S
